Biological target: 5α-reductase (Homo sapiens)
Construct: host or cells: Hs68 human genital skin fibroblasts
Experiment: 5α-Reductase activity in Hs68 human genital skin fibroblasts (conversion of labeled testosterone, TLC analysis)
Type: cell-based
Conditions: Hs68, test compound 1.00 µM; Hs68 cells; substrate testosterone 12 µM; incubated four hours; read-out: % Inhibition
measure: inhibition at 1 µM (%)
Hi! Could you send only the number? It should be in %, unit omitted.

**Query** Could you tell me which inhibition at 1 µM is on file for O=C1CCC2c3ccc(Cl)cc3CCC2N1 (racemic) ?
**Result** 100

More entries:
**Query** Endpoint output: inhibition at 1 µM of CN1C(=O)C=C[C@@H]2c3ccc(Cl)cc3CC[C@H]21 (racemic) . Value?
**Result** 71.8

**Query** Next compound up: Cc1ccc2c(c1)CC[C@@H]1[C@@H]2CCC(=O)N1C (racemic)
**Result** 100

====

Target: 5α-reductase (Homo sapiens)
Construct: host or cells: Hs68 human genital skin fibroblasts
Sequence (P18405 1-259): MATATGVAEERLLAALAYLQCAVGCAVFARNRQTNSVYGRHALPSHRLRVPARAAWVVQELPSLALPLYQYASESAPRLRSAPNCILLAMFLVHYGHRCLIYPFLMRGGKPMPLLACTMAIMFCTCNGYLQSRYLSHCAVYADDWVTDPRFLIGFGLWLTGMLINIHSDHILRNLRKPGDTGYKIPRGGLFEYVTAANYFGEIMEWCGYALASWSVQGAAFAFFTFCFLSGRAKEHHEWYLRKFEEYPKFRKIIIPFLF
Assay: 5α-Reductase activity in Hs68 human genital skin fibroblasts (conversion of labeled testosterone, TLC analysis)
Type: cell-based
Conditions: Hs68, test compound 0.316 µM; Hs68 cells; substrate testosterone 12 µM; incubated four hours; read-out: % Inhibition
Experimental: Cell Culture: 5α-Reductase activity was measured using Hs68 human genital skin fibroblasts which were originally purchased from the American Type Culture Collection (Rockville, MD). The cells were grown in Dulbecco's Modified Eagle's Medium (DMEM) plus 10% stripped fetal bovine serum which was supplemented with amphotericin B ([…]) and gentamicin ([…]) (GIBCO, Grand Island, NY). […]
Let's look at some molecules and their measured inhibition at 0.316 µM.
The answer consists of two parts: a number and, after it, its unit.

Consider the reported inhibition at 0.316 µM for these molecules:
**Query** For CCOC(=O)C=Cc1ccc2c(c1)CCC1C2CCC(=O)N1C (racemic) [Example 16] , what is its reported inhibition at 0.316 µM?
**Result** 80%

**Query** How about this molecule: CCN1C(=O)CC[C@@]2(C)c3ccccc3CC[C@H]12 (relative stereo) [Example 42]
**Result** 10.9%

**Query** Next: C[C@@H]1C[C@@H]2c3ccc(Cl)cc3C=C[C@H]2N(C)C1=O (racemic) [Example 54]
**Result** 73.8%

We now examine a further molecule.
**Query** Give the measured inhibition at 0.316 µM of COC(=O)C=Cc1ccc2c(c1)CCC1C2CCC(=O)N1C (racemic) [Example 23] .
**Result** 76.5%

====

Target: 5α-reductase (Homo sapiens, UniProt P18405)
Construct: host or cells: Hs68 human genital skin fibroblasts
Assay: 5α-Reductase activity in Hs68 human genital skin fibroblasts (conversion of labeled testosterone, TLC analysis)
Format: cell-based
Details: Hs68, test compound 0.316 µM; Hs68 cells; substrate testosterone 12 µM; incubated four hours; read-out: % Inhibition
measure: inhibition at 0.316 µM
Remember to quote the unit after the number.

Past entries and their recorded results:
**Query** // fetch 5α-reductase (Homo sapiens, UniProt P18405) inhibition at 0.316 µM for O=C1C=C[C@@H]2c3ccc(Cl)cc3CC[C@H]2N1 (racemic) [Example 50A]
**Result** 83.3%

**Query** Param item: `CN1C(=O)CC[C@H]2c3ccc(Cl)cc3CC[C@@H]21`
**Result** 95.6%

**Query** Follow-up entry: CN1C(=O)CC[C@@H]2c3ccc(CCC(=O)NC(C)(C)C)cc3CC[C@H]21 (racemic)
**Result** 17.3%

// moving on: another record for inhibition at 0.316 µM
**Query** # returns recorded inhibition at 0.316 µM (system: 5α-reductase (Homo sapiens, UniProt P18405)) for O=C1CC=C2c3ccc(Cl)cc3CCC2N1 (racemic) [Example 50B]
**Result** 84%
